Values were extracted from PubChem BioAssay (NCATS).

- method.notes: qHTS of pediatric cancer cell lines to identify multiple opportunities for drug repurposing: Primary screen for SK-N-MC cells (AID 1347093)
- assay.conditions: SK-N-MC viability, CellTiter-Glo luminescence, 48 h; series mostly up to 46 µM
Inconclusive results are not listed. The source made the active and inactive calls. Calls follow the shape of the dose curve; as a rule, active = well fitted cell-killing curve with a large enough effect; inconclusive = small, poorly fitted or top-dose-only effect; inactive = no such curve, though single readings can be large or run the other way.
Valid outcomes are listed here; reply with one: active, inactive

| compound | class.assignment |
| --- | --- |
| C=C[C@@H]1CN2CCC1C[C@@H]2C(O)c1ccnc2ccc(OC)cc12 (stereo not given in full) | inactive |
| O=C(CO)N1CCC(c2[nH]nc(-c3ccc(Cl)cc3)c2-c2ccncn2)CC1 | inactive |
| CCN(CC)CCCCNc1nc2cc(Cl)c(Cl)cc2nc1-c1ccc(-c2cccs2)s1 | active |

Which outcome did this test record for the compound `C[C@@H]1CCO[C@H]2Cn3cc(C(=O)NCc4ccc(F)cc4F)c(=O)c(O)c3C(=O)N12` ?
inactive

Which outcome did this test record for the compound `CC[C@H](C)n1cc(C)c2c(C(=O)NCc3c(C)cc(C)[nH]c3=O)cc(-c3ccc(N4CCNCC4)nc3)cc21` ?
active

Which outcome did this test record for the compound `O=C1C(c2c(O)[nH]c3ccccc23)=Nc2ccccc21` ?
active

Which outcome did this test record for the compound `Oc1ccc(C=Cc2cc(O)cc(O)c2)cc1` ?
active

Which outcome did this test record for the compound `CCC[C@@H](NC(=O)[C@@H]1[C@H]2CCC[C@@H]2CN1C(=O)[C@@H](NC(=O)[C@@H](NC(=O)c1cnccn1)C1CCCCC1)C(C)(C)C)C(=O)C(=O)NC1CC1` ?
active

Which outcome did this test record for the compound `CC(C)(C)c1[nH]cnc1C=c1[nH]c(=O)c(=Cc2ccccc2)[nH]c1=O` ?
active

Which outcome did this test record for the compound `N#CC(=C1Nc2ccccc2S1)c1ccnc(OCc2ccc(CN3CCOCC3)cc2)n1` ?
active

Which outcome did this test record for the compound `N=C1SC(=Cc2ccc(-c3ccc4c(c3)C(=O)NC4=O)o2)C(=O)N1c1ccc(Br)cc1` ?
inactive

Which outcome did this test record for the compound `CN(C)CCOc1ccc(C(=C(CCCl)c2ccccc2)c2ccccc2)cc1` ?
inactive

Which outcome did this test record for the compound `CN1CCC(COc2cnc(-c3cccc(Cn4nc(-c5cccc(C#N)c5)ccc4=O)c3)nc2)CC1` ?
active

Which outcome did this test record for the compound `O=[N+]([O-])c1ccc(Nc2ccccc2-c2ccccc2)c2nonc12` ?
active

Which outcome did this test record for the compound CNC1CCC(N(Cc2cccc(-c3ccncc3)c2)C(=O)c2sc3ccccc3c2Cl)CC1 (stereo not given) ?
active
